Tested on: EGFR (human), P00533 [L861Q]
Experiment: KINOMEscan competition binding
Conditions: compound 10.0 µM
For each entry below, report its kinase still bound, per cent of control value.

Query block: Which measured kinase still bound, per cent of control belongs to `Cc1cc([C@@H](C)Nc2ccccc2C(=O)O)c2nc(N3CCOCC3)cc(=O)n2c1` , tested on EGFR (human), P00533 [L861Q]?
Result block: 100%

Query block: Which measured kinase still bound, per cent of control belongs to `Cn1c(=O)n(-c2ccc(C(C)(C)C#N)cc2)c2c3cc(-c4cnc5ccccc5c4)ccc3ncc21` , tested on EGFR (human), P00533 [L861Q]?
Result block: 100%

Query block: Which measured kinase still bound, per cent of control belongs to `COc1cc2ncn(-c3cc(OCc4ccccc4C(F)(F)F)c(C(N)=O)s3)c2cc1OC` , tested on EGFR (human), P00533 [L861Q]?
Result block: 100%

Query block: Which measured kinase still bound, per cent of control belongs to `CC(=O)c1c(C)c2cnc(Nc3ccc(N4CCNCC4)cn3)nc2n(C2CCCC2)c1=O` , tested on EGFR (human), P00533 [L861Q]?
Result block: 82%

Query block: Which measured kinase still bound, per cent of control belongs to `COc1cc(N2CCN(C)CC2)ccc1Nc1nc(N)c(C(=O)c2c(Cl)cccc2Cl)s1` , tested on EGFR (human), P00533 [L861Q]?
Result block: 100%

Query block: Which measured kinase still bound, per cent of control belongs to `C[C@@H](Oc1cc(-n2cnc3ccc(CN4CCN(C)CC4)cc32)sc1C(N)=O)c1ccccc1C(F)(F)F` , tested on EGFR (human), P00533 [L861Q]?
Result block: 100%

Query block: Which measured kinase still bound, per cent of control belongs to `COc1cc2ncnc(-n3nc(-c4ccccn4)nc3N)c2cc1OC` , tested on EGFR (human), P00533 [L861Q]?
Result block: 64%

Query block: Which measured kinase still bound, per cent of control belongs to `Nc1ccc(-c2ccc3ncc4ccc(=O)n(-c5cccc(C(F)(F)F)c5)c4c3c2)cn1` , tested on EGFR (human), P00533 [L861Q]?
Result block: 93%

Query block: Which measured kinase still bound, per cent of control belongs to `C=CC(=O)Nc1ccc(C(=O)c2sc(Nc3ccc(N4CCN(C)CC4)cc3OC)nc2N)cc1` , tested on EGFR (human), P00533 [L861Q]?
Result block: 51%

Query block: Which measured kinase still bound, per cent of control belongs to `C=CC(=O)Nc1cc(NC(=O)c2ccc(C)c(NC(=O)c3ccno3)c2)cc(C(F)(F)F)c1` , tested on EGFR (human), P00533 [L861Q]?
Result block: 100%

Query block: Which measured kinase still bound, per cent of control belongs to `COc1cc(N2CCC(C(N)=O)CC2)ccc1Nc1nc(N)c(Cl)c(Nc2ccccc2S(=O)(=O)C(C)C)n1` , tested on EGFR (human), P00533 [L861Q]?
Result block: 0.3%

Query block: Which measured kinase still bound, per cent of control belongs to `COc1cc(N2CCN(C)CC2)ccc1Nc1ncc2c(n1)N(C)c1ccccc1C(=O)N2C` , tested on EGFR (human), P00533 [L861Q]?
Result block: 100%

Query block: Which measured kinase still bound, per cent of control belongs to `CCN1CCN(C(=O)Cc2ccc(Nc3ncc(F)c(Nc4ccc(C(=O)Nc5ccccc5Cl)cc4)n3)cc2)CC1` , tested on EGFR (human), P00533 [L861Q]?
Result block: 52%

Query block: Which measured kinase still bound, per cent of control belongs to `OCCCNc1cc(-c2ccnc(Nc3cccc(Cl)c3)n2)ccn1` , tested on EGFR (human), P00533 [L861Q]?
Result block: 100%
